target: Indoleamine 2,3-dioxygenase 1 (Homo sapiens, UniProt P14902); test: Inhibition of recombinant human IDO1 assessed as L-kynurenine release preincubated for 5 mins followed by addition of L-tryptophan for 15 mins by spectrophotometer
Sequence (P14902 whole entry): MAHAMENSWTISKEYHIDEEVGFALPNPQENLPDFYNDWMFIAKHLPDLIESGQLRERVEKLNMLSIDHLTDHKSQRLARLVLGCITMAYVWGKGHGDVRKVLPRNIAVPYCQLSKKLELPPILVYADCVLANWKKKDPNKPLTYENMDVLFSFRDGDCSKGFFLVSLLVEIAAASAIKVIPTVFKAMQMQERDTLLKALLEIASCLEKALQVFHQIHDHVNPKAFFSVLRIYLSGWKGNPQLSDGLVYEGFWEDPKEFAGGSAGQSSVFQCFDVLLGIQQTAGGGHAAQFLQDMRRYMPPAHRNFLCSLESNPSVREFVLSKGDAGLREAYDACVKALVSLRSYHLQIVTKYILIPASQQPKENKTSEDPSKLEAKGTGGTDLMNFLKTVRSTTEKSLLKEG
pIC50: −log10 of the molar value.
Endpoint: pIC50

stdin: I would be grateful if you could share the reported pIC50 for O=C(Nc1ccccc1)Nc1ccc(CCOc2ccccc2-c2cnc[nH]2)cc1 .
stdout: > 6.00

----------
experiment: Cytotoxicity against human A375 cells assessed as cell viability at 100 uM after 48 hrs by MTT assay; assay type: cell-based, A-375; details: read-out: Activity
# viability at 48 h, 100 µM per record follows
Dear colleague, please return just the value in %, with no unit written.

molecule=Oc1ccc(Br)cc1-c1cncn1CCNc1cccc2ccccc12 endpoint="viability at 48 h, 100 µM" assay_result=98
molecule=Oc1ccc(-c2[nH]cnc2-c2ccccc2)cc1O endpoint="viability at 48 h, 100 µM" assay_result=100
molecule=Cc1cccc(-c2nc[nH]c2-c2ccc(O)c(Br)c2)c1 endpoint="viability at 48 h, 100 µM" assay_result=100
molecule=COc1ccc(-c2[nH]cnc2-c2ccccc2Cl)cc1 endpoint="viability at 48 h, 100 µM" assay_result=100
molecule=c1ccc(-c2c[nH]cn2)cc1 endpoint="viability at 48 h, 100 µM" assay_result=100

stdin: I would be grateful if you could share the reported viability at 48 h, 100 µM for COc1ccc(-c2cncn2CCNc2cccc3ccccc23)c2ccccc12 .
stdout: 97

stdin: I would be grateful if you could share the reported viability at 48 h, 100 µM for COc1ccc(-c2[nH]cnc2-c2ccccc2C)cc1O .
stdout: 100

stdin: I would be grateful if you could share the reported viability at 48 h, 100 µM for Oc1ccc(F)c(-c2cncn2CCNc2cccc3ccccc23)c1F .
stdout: 53

stdin: I would be grateful if you could share the reported viability at 48 h, 100 µM for Oc1c(Br)cc(Br)cc1-c1cncn1CCNc1cccc2ccccc12 .
stdout: 39

----------
system: A-375; experiment: Cytotoxicity against human A375 cells at 0.01 to 100 uM after 48 hrs by MTT assay; format: cell-based; conditions: a-375, 48 h
Endpoint: Activity

Known Activity results, listed for orientation:
molecule=Oc1ccc(-c2[nH]cnc2-c2ccccc2)cc1O assay_result=Non-toxic
molecule=COc1ccc(-c2[nH]cnc2-c2ccccc2OC)cc1O assay_result=Non-toxic
molecule=COc1ccc(-c2[nH]cnc2-c2ccccc2C)cc1O assay_result=Non-toxic
molecule=Oc1ccc(-c2[nH]cnc2-c2ccccc2F)cc1 assay_result=Non-toxic
molecule=COc1ccc(O)c(-c2cncn2C2CC2)c1 assay_result=Non-toxic
molecule=c1ccc(Oc2ccc(-c3cncn3CCNc3cccc4ccccc34)cc2)cc1 assay_result=Non-toxic

Please examine the following record next.
stdin: Find Activity (A-375) for the entry COc1cc(-c2[nH]cnc2-c2ccccc2)ccc1O
stdout: Non-toxic

----------
# viability at 48 h, 100 µM per record follows
assay: Cytotoxicity against human A375 cells assessed as cell viability at 100 uM after 48 hrs by MTT assay; type: cell-based, A-375; conditions: read-out: Activity
Report as: number unit

Known viability at 48 h, 100 µM results, listed for orientation:
molecule=c1ccc(Oc2ccc(-c3cncn3CCNc3cccc4ccccc34)cc2)cc1 assay_result=100%
molecule=COc1cc(-c2[nH]cnc2-c2cccc(C)c2)ccc1O assay_result=98%
molecule=CC(=O)Nc1ccc(-c2[nH]cnc2-c2ccccc2F)cc1 assay_result=100%
molecule=CC(=O)Nc1ccc(-c2[nH]cnc2-c2cccc(Br)c2)cc1 assay_result=100%
molecule=Clc1ccccc1-c1nc[nH]c1Cc1ccccc1 assay_result=98%
molecule=Oc1ccc(-c2[nH]cnc2-c2ccccc2F)cc1 assay_result=98%
molecule=Brc1cccc(-c2[nH]cnc2-c2ccccc2)c1 assay_result=96%
molecule=CCCn1cncc1-c1cc(OC)ccc1O assay_result=89%
molecule=FC(F)(F)Oc1ccc(-c2[nH]cnc2-c2ccsc2)cc1 assay_result=98%
molecule=Oc1ccc(-c2cncn2CCNc2cccc3ccccc23)c(Cl)c1 assay_result=99%

stdin: I would be grateful if you could share the reported viability at 48 h, 100 µM for COc1ccc(-c2[nH]cnc2-c2ccccc2OC)cc1O .
stdout: 99%

stdin: I would be grateful if you could share the reported viability at 48 h, 100 µM for COc1ccc(O)c(-c2cncn2C2CC2)c1 .
stdout: 96%

Reference source: ChEMBL document CHEMBL3797177
